Each entry below lists one item and its recorded degraded at 3 µM value.
# test-description: Lactone to carboxylate form conversion in pH 7.4
# Format: physicochemical
# test-settings: pH 7.4, 37 °C, PBS with 10% DMSO; read-out: carboxylate form formed

For orientation, consider the following solved cases.
{"compound": "CC[C@@]1(O)C(=O)OCc2c1cc1n(c2=O)Cc2c-1nc1cc(F)c(C)c3c1c2[C@@H](NC(=O)CO)CC3 [Dxd, reference compound]", "degraded at 3 µM": "76.5%"}
{"compound": "CC[C@@]1(O)C(=O)OCc2c1cc1n(c2=O)Cc2c-1nc1cc3c(c4c1c2[C@@H](NC(=O)[C@@H](C)O)CC4)OCO3", "degraded at 3 µM": "> 86%"}

Please find the next compound below.
Request: Which degraded at 3 µM value belongs to CC[C@@]1(O)C(=O)OCc2c1cc1n(c2=O)Cc2c-1nc1cc3c(c4c1c2[C@@H](NC(=O)CO)CC4)OCO3 ?
Result: > 86%
